TARGET_UNDER_TEST: microRNA 21
PROTOCOL_TEXT: Binding affinity to 5'-FAM/3'-DAB-labeled UGUCGGGUAGCUUAUCAGACUGAUGUUGACUGUUGAAUCUCAUGGCAACACCAGUCGAUGGGCUGUCUGACA pre-miRNA-21 (unknown origin) assessed as dissociation constant incubated for overnight in presence of Saccharomyces cerevisiae tRNA by fluorescence based assay
Type: nucleic-acid assay
OBSERVED_PROPERTY: pKd
Keep it numeric: pKd is minus log10 of the concentration in mol/L.

Input: Query: pKd; subject: "NC[C@@H]1O[C@H](O[C@H]2[C@@H](O)[C@H](O[C@@H]3[C@@H](O)[C@H](N)C[C@H](N)[C@H]3O[C@H]3O[C@H](CN)[C@@H](O)[C@H](O)[C@H]3N)O[C@@H]2CO)[C@H](N)[C@@H](O)[C@@H]1O"
Output: 5.85

Input: Cool, now "Cc1ccc(C(=O)Nc2nc(-c3cccc(NC(=O)CCC(=O)N[C@@H](Cc4cn(C[C@H]5O[C@@H](O[C@@H]6[C@@H](O)[C@H](N)C[C@H](N)[C@H]6O[C@H]6O[C@H](CN)[C@@H](O)[C@H](O)[C@H]6N)[C@H](O)[C@@H]5O[C@H]5O[C@@H](CN)[C@@H](O)[C@H](O)[C@H]5N)nn4)C(=O)N[C@@H](Cc4c[nH]cn4)C(N)=O)c3)cs2)cc1"
Output: 6.77

Input: Cool, now "Cc1ccc(C(=O)Nc2nc(-c3cccc(NC(=O)CCC(=O)N[C@@H](Cc4cn(C[C@H]5O[C@@H](O[C@@H]6[C@@H](O)[C@H](N)C[C@H](N)[C@H]6O[C@H]6O[C@H](CN)[C@@H](O)[C@H](O)[C@H]6N)[C@H](O)[C@@H]5O[C@H]5O[C@@H](CN)[C@@H](O)[C@H](O)[C@H]5N)nn4)C(=O)N[C@@H](CCCCN)C(N)=O)c3)cs2)cc1"
Output: 6.39

Input: Cool, now "CC(=O)Nc1nc(-c2cccc(NC(=O)CCC(=O)N[C@@H](Cc3cn(C[C@H]4O[C@@H](O[C@@H]5[C@@H](O)[C@H](N)C[C@H](N)[C@H]5O[C@H]5O[C@H](CN)[C@@H](O)[C@H](O)[C@H]5N)[C@H](O)[C@@H]4O[C@H]4O[C@@H](CN)[C@@H](O)[C@H](O)[C@H]4N)nn3)C(=O)N[C@@H](CCCCN)C(N)=O)c2)cs1"
Output: 7.29

Input: Cool, now "NC[C@@H]1O[C@H](O[C@H]2[C@@H](O)[C@H](O[C@@H]3[C@@H](O)[C@H](N)C[C@H](N)[C@H]3O[C@H]3O[C@H](CN)[C@@H](O)[C@H](O)[C@H]3N)O[C@@H]2Cn2cc(CCC(=O)Nc3cccc(-c4csc(NC(=O)[C@@H](N)Cc5c[nH]cn5)n4)c3)nn2)[C@H](N)[C@@H](O)[C@@H]1O"
Output: 6.87

Input: Cool, now "CC(=O)Nc1nc(-c2cccc(NC(=O)CCC(=O)N[C@@H](Cc3cn(C[C@H]4O[C@@H](O[C@@H]5[C@@H](O)[C@H](N)C[C@H](N)[C@H]5O[C@H]5O[C@H](CN)[C@@H](O)[C@H](O)[C@H]5N)[C@H](O)[C@@H]4O[C@H]4O[C@@H](CN)[C@@H](O)[C@H](O)[C@H]4N)nn3)C(=O)N[C@@H](C)C(N)=O)c2)cs1"
Output: 6.82

Input: Cool, now "CC(=O)Nc1nc(-c2cccc(NC(=O)CCC(=O)N[C@@H](Cc3cn(C[C@H]4O[C@@H](O[C@@H]5[C@@H](O)[C@H](N)C[C@H](N)[C@H]5O[C@H]5O[C@H](CN)[C@@H](O)[C@H](O)[C@H]5N)[C@H](O)[C@@H]4O[C@H]4O[C@@H](CN)[C@@H](O)[C@H](O)[C@H]4N)nn3)C(=O)N[C@@H](Cc3c[nH]cn3)C(N)=O)c2)cs1"
Output: 7.30

Input: Cool, now "C[C@H](NC(=O)[C@H](Cc1cn(C[C@H]2O[C@@H](O[C@@H]3[C@@H](O)[C@H](N)C[C@H](N)[C@H]3O[C@H]3O[C@H](CN)[C@@H](O)[C@H](O)[C@H]3N)[C@H](O)[C@@H]2O[C@H]2O[C@@H](CN)[C@@H](O)[C@H](O)[C@H]2N)nn1)NC(=O)CCC(=O)NCCn1ccc(=O)[nH]c1=O)C(N)=O"
Output: 6.09

Input: Cool, now "Cc1ccc(C(=O)Nc2nc(-c3cccc(NC(=O)CCC(=O)N[C@@H](Cc4cn(C[C@H]5O[C@@H](O[C@@H]6[C@@H](O)[C@H](N)C[C@H](N)[C@H]6O[C@H]6O[C@H](CN)[C@@H](O)[C@H](O)[C@H]6N)[C@H](O)[C@@H]5O[C@H]5O[C@@H](CN)[C@@H](O)[C@H](O)[C@H]5N)nn4)C(=O)N[C@@H](C)C(N)=O)c3)cs2)cc1"
Output: 6.77

---

Tested on: microRNA 21
PROTOCOL_TEXT: Selectivity index, ratio of Kd for 5'-FAM/3'-DAB-labeled UGUCGGGUAGCUUAUCAGACUGAUGUUGACUGUUGAAUCUCAUGGCAACACCAGUCGAUGGGCUGUCUGACA pre-miRNA-21 (unknown origin) in presence of double stranded 15-mer 5'-CGTTTTTATTTTTGC-3' DNA to Kd for 5'-FAM/3'-DAB-labeled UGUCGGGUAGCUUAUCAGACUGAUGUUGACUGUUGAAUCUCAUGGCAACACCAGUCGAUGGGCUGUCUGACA pre-miRNA-21 (unknown origin)
Format: nucleic-acid assay
Exercise: state measured Ratio for each of the compounds provided.
When you answer, write just the number.

Input: Return Ratio measured with microRNA 21 given this compound: "C[C@H](NC(=O)[C@H](Cc1cn(C[C@H]2O[C@@H](O[C@@H]3[C@@H](O)[C@H](N)C[C@H](N)[C@H]3O[C@H]3O[C@H](CN)[C@@H](O)[C@H](O)[C@H]3N)[C@H](O)[C@@H]2O[C@H]2O[C@@H](CN)[C@@H](O)[C@H](O)[C@H]2N)nn1)NC(=O)CCC(=O)NCCn1ccc(=O)[nH]c1=O)C(N)=O"
Output: 2.3

Input: Cool, now "CC(=O)Nc1nc(-c2cccc(NC(=O)CCC(=O)N[C@@H](Cc3cn(C[C@H]4O[C@@H](O[C@@H]5[C@@H](O)[C@H](N)C[C@H](N)[C@H]5O[C@H]5O[C@H](CN)[C@@H](O)[C@H](O)[C@H]5N)[C@H](O)[C@@H]4O[C@H]4O[C@@H](CN)[C@@H](O)[C@H](O)[C@H]4N)nn3)C(=O)N[C@@H](C)C(N)=O)c2)cs1"
Output: 1.4

Input: Cool, now "CC(=O)Nc1nc(-c2cccc(NC(=O)CCC(=O)N[C@@H](Cc3cn(C[C@H]4O[C@@H](O[C@@H]5[C@@H](O)[C@H](N)C[C@H](N)[C@H]5O[C@H]5O[C@H](CN)[C@@H](O)[C@H](O)[C@H]5N)[C@H](O)[C@@H]4O[C@H]4O[C@@H](CN)[C@@H](O)[C@H](O)[C@H]4N)nn3)C(=O)N[C@@H](CCCCN)C(N)=O)c2)cs1"
Output: 1.9

---

TARGET_UNDER_TEST: microRNA 21
PROTOCOL_TEXT: Binding affinity to 5'-FAM/3'-DAB-labeled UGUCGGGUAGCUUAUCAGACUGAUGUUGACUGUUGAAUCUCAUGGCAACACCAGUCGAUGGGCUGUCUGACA pre-miRNA-21 (unknown origin) assessed as dissociation constant incubated for overnight in presence of double stranded 15-mer 5'-CGTTTTTATTTTTGC-3' DNA by fluorescence based assay
Type: nucleic-acid assay
OBSERVED_PROPERTY: pKd
Keep it numeric: pKd is minus log10 of the concentration in mol/L.

Input: Query: pKd; subject: "Cc1ccc(C(=O)Nc2nc(-c3cccc(NC(=O)CCC(=O)N[C@@H](Cc4cn(C[C@H]5O[C@@H](O[C@@H]6[C@@H](O)[C@H](N)C[C@H](N)[C@H]6O[C@H]6O[C@H](CN)[C@@H](O)[C@H](O)[C@H]6N)[C@H](O)[C@@H]5O[C@H]5O[C@@H](CN)[C@@H](O)[C@H](O)[C@H]5N)nn4)C(=O)N[C@@H](CCCCN)C(N)=O)c3)cs2)cc1"
Output: 6.06

Input: Cool, now "CC(=O)Nc1nc(-c2cccc(NC(=O)CCC(=O)N[C@@H](Cc3cn(C[C@H]4O[C@@H](O[C@@H]5[C@@H](O)[C@H](N)C[C@H](N)[C@H]5O[C@H]5O[C@H](CN)[C@@H](O)[C@H](O)[C@H]5N)[C@H](O)[C@@H]4O[C@H]4O[C@@H](CN)[C@@H](O)[C@H](O)[C@H]4N)nn3)C(=O)N[C@@H](CCCCN)C(N)=O)c2)cs1"
Output: 7.02

Input: Cool, now "Cc1ccc(C(=O)Nc2nc(-c3cccc(NC(=O)CCC(=O)N[C@@H](Cc4cn(C[C@H]5O[C@@H](O[C@@H]6[C@@H](O)[C@H](N)C[C@H](N)[C@H]6O[C@H]6O[C@H](CN)[C@@H](O)[C@H](O)[C@H]6N)[C@H](O)[C@@H]5O[C@H]5O[C@@H](CN)[C@@H](O)[C@H](O)[C@H]5N)nn4)C(=O)N[C@@H](C)C(N)=O)c3)cs2)cc1"
Output: 6.58

Input: Cool, now "Cc1ccc(C(=O)Nc2nc(-c3cccc(NC(=O)CCC(=O)N[C@@H](Cc4cn(C[C@H]5O[C@@H](O[C@@H]6[C@@H](O)[C@H](N)C[C@H](N)[C@H]6O[C@H]6O[C@H](CN)[C@@H](O)[C@H](O)[C@H]6N)[C@H](O)[C@@H]5O[C@H]5O[C@@H](CN)[C@@H](O)[C@H](O)[C@H]5N)nn4)C(=O)N[C@@H](Cc4c[nH]cn4)C(N)=O)c3)cs2)cc1"
Output: 6.56

Input: Cool, now "C[C@H](NC(=O)[C@H](Cc1cn(C[C@H]2O[C@@H](O[C@@H]3[C@@H](O)[C@H](N)C[C@H](N)[C@H]3O[C@H]3O[C@H](CN)[C@@H](O)[C@H](O)[C@H]3N)[C@H](O)[C@@H]2O[C@H]2O[C@@H](CN)[C@@H](O)[C@H](O)[C@H]2N)nn1)NC(=O)CCC(=O)NCCn1ccc(=O)[nH]c1=O)C(N)=O"
Output: 5.84

Input: Cool, now "NC[C@@H]1O[C@H](O[C@H]2[C@@H](O)[C@H](O[C@@H]3[C@@H](O)[C@H](N)C[C@H](N)[C@H]3O[C@H]3O[C@H](CN)[C@@H](O)[C@H](O)[C@H]3N)O[C@@H]2CO)[C@H](N)[C@@H](O)[C@@H]1O"
Output: 5.71

Input: Cool, now "CC(=O)Nc1nc(-c2cccc(NC(=O)CCC(=O)N[C@@H](Cc3cn(C[C@H]4O[C@@H](O[C@@H]5[C@@H](O)[C@H](N)C[C@H](N)[C@H]5O[C@H]5O[C@H](CN)[C@@H](O)[C@H](O)[C@H]5N)[C@H](O)[C@@H]4O[C@H]4O[C@@H](CN)[C@@H](O)[C@H](O)[C@H]4N)nn3)C(=O)N[C@@H](Cc3c[nH]cn3)C(N)=O)c2)cs1"
Output: 7.09
